assay-procedure: self-splicing fitness, log relative to wild type (ln ratio); higher = more splicing; Tetrahymena group I intron in knt gene, E. coli kanamycin selection, DiMSum; sequences stand for … in CUCUCU…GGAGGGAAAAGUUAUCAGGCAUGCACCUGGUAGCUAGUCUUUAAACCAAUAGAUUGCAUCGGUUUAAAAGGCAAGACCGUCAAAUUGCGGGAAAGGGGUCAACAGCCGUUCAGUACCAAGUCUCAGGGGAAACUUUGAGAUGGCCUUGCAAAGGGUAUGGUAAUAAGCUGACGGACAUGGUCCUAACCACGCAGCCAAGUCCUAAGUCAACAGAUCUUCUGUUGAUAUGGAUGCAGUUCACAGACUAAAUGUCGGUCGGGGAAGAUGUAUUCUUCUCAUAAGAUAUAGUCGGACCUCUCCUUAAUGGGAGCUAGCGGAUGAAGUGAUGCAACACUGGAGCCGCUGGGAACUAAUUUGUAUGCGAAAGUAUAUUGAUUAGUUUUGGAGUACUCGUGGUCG;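 further: selection with 25 µg/mL kanamycin versus none on LB agar overnight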
experimental-parameters: 37 °C
reported-property: self-splicing fitness (ln)
Would you mind answering with just the numeric figure?

Q: Data request, read-out self-splicing fitness (ln), for UACAAGCAAUAUUACGAUUC
Result: -2.04

Q: Data request, read-out self-splicing fitness (ln), for UCUCAGCAAUAUUACGCGAU
Result: -2.1

Q: Data request, read-out self-splicing fitness (ln), for ACACAGCAAUAUUACGACAU
Result: -0.0836

Q: Data request, read-out self-splicing fitness (ln), for AUCUAGCAAUAUUACGAAUA
Result: -0.668

Q: Data request, read-out self-splicing fitness (ln), for UAAGAGCAAUAUUACGAAGU
Result: -1.85

Q: Data request, read-out self-splicing fitness (ln), for UCCCAGCAAUAUUACGACUC
Result: -1.91

Q: Data request, read-out self-splicing fitness (ln), for UUAGAGCAAUAUUACGGCUG
Result: 0.354

Q: Data request, read-out self-splicing fitness (ln), for UGUUAGCAAUAUUACGCAUU
Result: -1.47

Q: Data request, read-out self-splicing fitness (ln), for GACGAGCAAUAUUACGUACU
Result: -0.775

Q: Data request, read-out self-splicing fitness (ln), for CCCGAGCAAUAUUACGAGGG
Result: -2.58

Q: Data request, read-out self-splicing fitness (ln), for GGGGAGCAAUAUUACGUCUU
Result: -0.96

Q: Data request, read-out self-splicing fitness (ln), for UGGAAGCAAUAUUACGUAAC
Result: -1.71

Q: Data request, read-out self-splicing fitness (ln), for CCCCAGCAAUAUUACGCCUA
Result: -2.89

Q: Data request, read-out self-splicing fitness (ln), for GGCUAGCAAUAUUACGCACA
Result: 0.1

Q: Data request, read-out self-splicing fitness (ln), for AUCAAGCAAUAUUACGGGCU
Result: -0.884

Q: Data request, read-out self-splicing fitness (ln), for AGUGAGCAAUAUUACGAAAC
Result: -1.2

Q: Data request, read-out self-splicing fitness (ln), for GCCUAGCAAUAUUACGGAUC
Result: -0.096

Q: Data request, read-out self-splicing fitness (ln), for CCGCAGCAAUAUUACGAUUA
Result: -2.72

Q: Data request, read-out self-splicing fitness (ln), for UCUGAGCAAUAUUACGUCCA
Result: -1.68

Q: Data request, read-out self-splicing fitness (ln), for GAUCAGCAAUAUUACGUUAA
Result: -0.776

Q: Data request, read-out self-splicing fitness (ln), for UACAAGCAAUAUUACGCAAG
Result: -1.6

Q: Data request, read-out self-splicing fitness (ln), for CUAGAGCAAUAUUACGAUCU
Result: -2.29

Q: Data request, read-out self-splicing fitness (ln), for CAGUAGCAAUAUUACGAGGU
Result: -2.88

Q: Data request, read-out self-splicing fitness (ln), for UUGGAGCAAUAUUACGAAUA
Result: -2.1

Q: Data request, read-out self-splicing fitness (ln), for CGGAAGCAAUAUUACGUGUC
Result: -1.94

Q: Data request, read-out self-splicing fitness (ln), for GAACAGCAAUAUUACGGACA
Result: -0.732

Q: Data request, read-out self-splicing fitness (ln), for UGGCAGCAAUAUUACGAUGU
Result: -1.67

Q: Data request, read-out self-splicing fitness (ln), for AUGUAGCAAUAUUACGCGGC
Result: -3.45

Q: Data request, read-out self-splicing fitness (ln), for ACCAAGCAAUAUUACGGAGC
Result: -3.2

Q: Data request, read-out self-splicing fitness (ln), for UCCCAGCAAUAUUACGUUGU
Result: -1.97

Q: Data request, read-out self-splicing fitness (ln), for AAAUAGCAAUAUUACGAAAA
Result: -1.47

Q: Data request, read-out self-splicing fitness (ln), for UCGCAGCAAUAUUACGUAUC
Result: -2.15

Q: Data request, read-out self-splicing fitness (ln), for GAGCAGCAAUAUUACGCGGU
Result: -0.69

Q: Data request, read-out self-splicing fitness (ln), for CGCAAGCAAUAUUACGCUCU
Result: -0.475

Q: Data request, read-out self-splicing fitness (ln), for GCCGAGCAAUAUUACGAAUG
Result: -2.75

Q: Data request, read-out self-splicing fitness (ln), for GCGCAGCAAUAUUACGGAUA
Result: -0.989

Q: Data request, read-out self-splicing fitness (ln), for AAGUAGCAAUAUUACGCAUG
Result: -0.492

Q: Data request, read-out self-splicing fitness (ln), for ACCUAGCAAUAUUACGUCUA
Result: -2.04

Q: Data request, read-out self-splicing fitness (ln), for UUCUAGCAAUAUUACGUCUC
Result: -2.23

Q: Data request, read-out self-splicing fitness (ln), for UUUUAGCAAUAUUACGAAAU
Result: -1.72

Q: Data request, read-out self-splicing fitness (ln), for GGGCAGCAAUAUUACGGGCU
Result: -2.04

Q: Data request, read-out self-splicing fitness (ln), for CUUAAGCAAUAUUACGUUCA
Result: -3.79

Q: Data request, read-out self-splicing fitness (ln), for GGCCAGCAAUAUUACGCUUC
Result: -0.344

Q: Data request, read-out self-splicing fitness (ln), for CAGAAGCAAUAUUACGGCGA
Result: -1.5

Q: Data request, read-out self-splicing fitness (ln), for GCCGAGCAAUAUUACGCGGA
Result: 0.224

Q: Data request, read-out self-splicing fitness (ln), for UCACAGCAAUAUUACGCGAG
Result: -0.0838

Q: Data request, read-out self-splicing fitness (ln), for AACGAGCAAUAUUACGGAAA
Result: -2.65

Q: Data request, read-out self-splicing fitness (ln), for GGUCAGCAAUAUUACGCUAC
Result: -2.17

Q: Data request, read-out self-splicing fitness (ln), for AGGUAGCAAUAUUACGAAAC
Result: -1.85

Q: Data request, read-out self-splicing fitness (ln), for UCGAAGCAAUAUUACGCGAA
Result: -0.19

Q: Data request, read-out self-splicing fitness (ln), for CCCCAGCAAUAUUACGCCGC
Result: -2.26

Q: Data request, read-out self-splicing fitness (ln), for AAUCAGCAAUAUUACGCAGU
Result: -0.257

Q: Data request, read-out self-splicing fitness (ln), for UAUGAGCAAUAUUACGACAU
Result: -2.56

Q: Data request, read-out self-splicing fitness (ln), for UUGGAGCAAUAUUACGCGGC
Result: -1.26

Q: Data request, read-out self-splicing fitness (ln), for ACACAGCAAUAUUACGAGUC
Result: -3.05

Q: Data request, read-out self-splicing fitness (ln), for GUCCAGCAAUAUUACGAGAC
Result: -1.82

Q: Data request, read-out self-splicing fitness (ln), for GGGUAGCAAUAUUACGUUCU
Result: -0.164

Q: Data request, read-out self-splicing fitness (ln), for GACCAGCAAUAUUACGAUGG
Result: -2.82

Q: Data request, read-out self-splicing fitness (ln), for AUCAAGCAAUAUUACGCGGG
Result: -1.04

Q: Data request, read-out self-splicing fitness (ln), for CGAAAGCAAUAUUACGACCA
Result: -1.24

Q: Data request, read-out self-splicing fitness (ln), for AAUUAGCAAUAUUACGAUGU
Result: 0.171

Q: Data request, read-out self-splicing fitness (ln), for CUAUAGCAAUAUUACGGCUA
Result: -3.42

Q: Data request, read-out self-splicing fitness (ln), for GAAGAGCAAUAUUACGGUAG
Result: -3.01

Q: Data request, read-out self-splicing fitness (ln), for UAGUAGCAAUAUUACGGCAA
Result: -1.04

Q: Data request, read-out self-splicing fitness (ln), for CAUUAGCAAUAUUACGUCCU
Result: -1.38

Q: Data request, read-out self-splicing fitness (ln), for UGGGAGCAAUAUUACGUUUC
Result: -1.66

Q: Data request, read-out self-splicing fitness (ln), for CCGCAGCAAUAUUACGCGAA
Result: -2.5
